experimental-system: MrgA1 (Mus musculus)
Construct: expressed in transfected cells
Sequence (Q91WW5 1-304): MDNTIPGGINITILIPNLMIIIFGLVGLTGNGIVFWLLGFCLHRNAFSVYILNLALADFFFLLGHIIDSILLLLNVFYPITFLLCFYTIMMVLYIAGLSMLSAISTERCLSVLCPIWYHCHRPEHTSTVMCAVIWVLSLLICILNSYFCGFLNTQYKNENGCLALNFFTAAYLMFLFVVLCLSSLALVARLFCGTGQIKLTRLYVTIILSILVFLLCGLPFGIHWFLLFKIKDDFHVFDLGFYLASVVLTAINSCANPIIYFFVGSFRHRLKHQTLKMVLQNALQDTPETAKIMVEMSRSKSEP
assay-procedure: calcium-mobilization assay (FLEXstation, Fura-2/AM) in HEK-MrgA1 cells
Assay type: cell-based
condition-summary: Table 1; HEK-MrgA1 cells, FLEXstation assay; means ± SEM, triplicate; Inactive = no activation detected at concentrations up to 10 mM
Where a SMILES comes first, the peptide text is derived from it. [ ]: non-standard residue; d: D form. pGlu = O=C1CC[C@@H](C(=O)O)N1
endpoint-label: EC50 MrgA1

N=C(N)NCCC[C@H](NC(=O)CNC(=O)[C@@H]1CCC(=O)N1)C(=O)N[C@@H](Cc1ccccc1)C(N)=O [AnthoRF-amide] ([pGlu]GRF-NH2) : Inactive
CC(C)C[C@H](NC(=O)[C@H](CC(N)=O)NC(=O)[C@@H]1CCCN1C(=O)[C@@H](N)C(C)C)C(=O)N1CCC[C@H]1C(=O)N[C@@H](CCC(N)=O)C(=O)N[C@@H](CCCNC(=N)N)C(=O)N[C@@H](Cc1ccccc1)C(N)=O [RFRP-3] : Inactive
CC(C)C[C@H](NC(=O)CNC(=O)[C@H](Cc1ccccc1)NC(=O)[C@H](CO)NC(=O)[C@H](CC(N)=O)NC(=O)[C@H](Cc1c[nH]c2ccccc12)NC(=O)[C@H](CC(N)=O)NC(=O)[C@H](Cc1ccc(O)cc1)NC(=O)[C@H](CC(N)=O)NC(=O)[C@@H]1CCCN1C(=O)[C@H](CC(C)C)NC(=O)[C@H](CC(=O)O)NC(=O)[C@@H](N)CCCCN)C(=O)N[C@@H](CCCNC(=N)N)C(=O)N[C@@H](Cc1ccccc1)C(N)=O [Kiss(107-121)] : Inactive

* * *

experimental-system: MrgC11 (Mus musculus, UniProt Q8CIP3)
Construct: A full-length MrgC11 cDNA was cloned from the newborn DRG cDNA library; expressed in transfected cells
Sequence (Q8CIP3 1-322): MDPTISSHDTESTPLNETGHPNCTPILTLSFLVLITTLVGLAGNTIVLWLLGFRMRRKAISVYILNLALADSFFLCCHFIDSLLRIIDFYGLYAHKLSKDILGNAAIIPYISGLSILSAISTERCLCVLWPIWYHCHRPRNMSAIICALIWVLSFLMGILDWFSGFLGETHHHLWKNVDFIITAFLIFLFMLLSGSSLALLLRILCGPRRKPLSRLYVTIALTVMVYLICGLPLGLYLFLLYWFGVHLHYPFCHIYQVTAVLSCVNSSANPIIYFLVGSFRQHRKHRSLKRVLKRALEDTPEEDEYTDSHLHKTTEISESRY
assay-procedure: calcium-mobilization assay (FLEXstation, Fura-2/AM) in HEK-MrgC11 cells
Format: cell-based
condition-summary: Table 1; HEK-MrgC11 cells, FLEXstation assay; means ± SEM, triplicate; Inactive = no activation detected at concentrations up to 10 mM; read-out: EC50 MrgC11
Where a SMILES comes first, the peptide text is derived from it. [ ]: non-standard residue; d: D form. pGlu = O=C1CC[C@@H](C(=O)O)N1
endpoint-label: EC50 (nM)

Previously resolved entries follow.
CC(C)C[C@H](NC(=O)CNC(=O)[C@H](Cc1ccccc1)NC(=O)[C@H](CO)NC(=O)[C@H](CC(N)=O)NC(=O)[C@H](Cc1c[nH]c2ccccc12)NC(=O)[C@H](CC(N)=O)NC(=O)[C@H](Cc1ccc(O)cc1)NC(=O)[C@H](CC(N)=O)NC(=O)[C@@H]1CCCN1C(=O)[C@H](CC(C)C)NC(=O)[C@H](CC(=O)O)NC(=O)[C@@H](N)CCCCN)C(=O)N[C@@H](CCCNC(=N)N)C(=O)N[C@@H](Cc1ccccc1)C(N)=O : 102
CSCC[C@H](NC(=O)[C@@H](NC(=O)[C@@H](N)Cc1ccc(O)cc1)C(C)C)C(=O)NCC(=O)N[C@@H](Cc1c[nH]cn1)C(=O)N[C@@H](Cc1ccccc1)C(=O)N[C@@H](CCCNC(=N)N)C(=O)N[C@@H](Cc1c[nH]c2ccccc12)C(=O)N[C@@H](CC(=O)O)C(=O)N[C@@H](CCCNC(=N)N)C(=O)N[C@@H](Cc1ccccc1)C(N)=O : 17
CC(C)C[C@H](NC(=O)CNC(=O)[C@H](Cc1ccccc1)NC(=O)[C@H](CO)NC(=O)[C@H](CC(N)=O)NC(=O)[C@H](Cc1c[nH]c2ccccc12)NC(=O)[C@H](CC(N)=O)NC(=O)[C@@H](N)Cc1ccc(O)cc1)C(=O)N[C@@H](CCCNC(=N)N)C(=O)N[C@@H](Cc1ccccc1)C(N)=O : 50

I = N=C(N)NCCC[C@H](NC(=O)CNC(=O)[C@@H]1CCC(=O)N1)C(=O)N[C@@H](Cc1ccccc1)C(N)=O [AnthoRF-amide] ([pGlu]GRF-NH2)
II = CC(C)C[C@H](NC(=O)[C@H](CC(N)=O)NC(=O)[C@@H]1CCCN1C(=O)[C@@H](N)C(C)C)C(=O)N1CCC[C@H]1C(=O)N[C@@H](CCC(N)=O)C(=O)N[C@@H](CCCNC(=N)N)C(=O)N[C@@H](Cc1ccccc1)C(N)=O
Input line: Of I and II , which one carries the higher reported EC50? API: response body contains the label of the selected item.
Output line: II
(II: 113 nM, I: 16 nM)

Values compiled from patent US20040121410A1.
